For each record, write down the corresponding growth inhibition.
Assay: NCI Yeast Anticancer Drug Screen. Data for the mlh1 rad18 strain (AID 175)
Settings: S. cerevisiae mlh1 rad18 strain growth inhibition; at 50.0 µM; active compounds read high
About 79,000 compounds went through this panel and 15% of them were active in at least one assay; those are over-represented in the sample as a whole.
Report the value in % with no unit label.

Entry "Oc1ccccc1/C=N/Nc1nc(N/N=C/c2ccccc2O)nc(N/N=C/c2ccccc2O)n1" — recorded growth inhibition = 15.9

Value of growth inhibition reported for the compound "CC(=O)Oc1ccc(OC(C)=O)c([N+](=O)[O-])c1" is 29.2

Quick note, growth inhibition for "NNc1ccc(S(=O)(=O)O)cc1Cl" landed at 2.45

Noted for "FC(F)(F)c1nc(=S)c2cn[nH]c2[nH]1" : its growth inhibition reads -5.3

What the record says about "Cc1cc(C)nc(N(C)CCN2CCCCC2)c1" : growth inhibition is -5.85

# compound "CCN(CCOC(=O)Nc1cccc(C(C)=O)c1)c1ccccc1" ; its growth inhibition = 88.2

Measured growth inhibition of "N#CC(=Nc1ccc2ccccc2c1)C1=C(O)c2ccccc2C1=O" : 11.8

growth inhibition recorded for this compound, "CC1(C)[C@H](C(=O)O)CC[C@]1(C)C(=O)O" , is 11.4

The reported value for "Cc1c(Cl)cc([N+](=O)[O-])cc1Cl" in terms of growth inhibition is 5.25

# compound "O=C1O[C@@H](c2ccccc2)C[C@@H]1CN1CCOCC1" ; its growth inhibition = 15.1

# growth inhibition (compound: CC(C)C(NCc1c(O)ccc2c(-c3ccccc3)cc(=O)oc12)C(=O)O (configuration not stated) ) is -10.2

Lab book: growth inhibition of "CN(C)c1c([N+](=O)[O-])cc2[nH]cnc2c1[N+](=O)[O-]" noted as 13.7
